molecular target: TDP-43 1-260 (Homo sapiens, UniProt Q13148); experiment: TDP-43 alpha-screen assay with bt-TAR32; type: binding; conditions: bt-TAR32 0.125 nM; 3 h at room temperature; read-out: Activity (μM) in the TDP-43-DNA alpha-screen assay
Sequence (Q13148 1-260): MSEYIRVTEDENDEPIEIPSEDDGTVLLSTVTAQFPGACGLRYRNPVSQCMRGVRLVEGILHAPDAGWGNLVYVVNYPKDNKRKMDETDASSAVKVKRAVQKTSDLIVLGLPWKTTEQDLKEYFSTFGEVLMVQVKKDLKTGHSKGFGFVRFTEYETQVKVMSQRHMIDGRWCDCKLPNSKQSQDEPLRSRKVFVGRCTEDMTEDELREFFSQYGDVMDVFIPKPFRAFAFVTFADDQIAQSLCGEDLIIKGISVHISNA
Reported IC50 values for the following molecules.
Field format: number, assumed µM, no unit text.

Would you please look over these solved cases?
Molecule: CN(CCCN)CCCNc1cc(-c2ccc(N3CCNCC3)cc2)nc(-c2ccc(N3CCNCC3)cc2)c1
Endpoint Value: 0.02
--
Molecule: COc1ccc(-c2cc(N[C@H]3C[C@H](N)C3)cc(-c3ccc(CN(C)CCN(C)C)o3)n2)cc1
Endpoint Value: 2.4
--
Molecule: COc1ccc(-c2cc(NCCCN(C)CCCN)cc(-c3ccc(-c4ccncc4)cc3)n2)cc1
Endpoint Value: 0.13
--
Molecule: COc1ccc(-c2cc(NCCCN(C)C)cc(-c3cccc(OCCN(C)C)c3)n2)cc1
Endpoint Value: 0.34
--
Molecule: CN(CCCN)CCCNc1cc(-c2ccc(-c3ccncc3)cc2)nc(-c2ccc(N3CCNCC3)cc2)c1
Endpoint Value: 0.13
--
Molecule: COc1ccc(-c2cc(NCCCN(C)CCCN)cc(-c3ccc(OCCCN(C)C)nc3)n2)cc1
Endpoint Value: 0.15

Q) Quick one: IC50 of "COc1ccc(-c2cc(NCCCN(C)CCCN)cc(-c3cnc(N4CCOCC4)s3)n2)cc1" ?
A) 5.58

Q) Please answer likewise for COc1ccc(-c2cc(NCC3CCN(CC4CCNC4)C3)cc(-c3ccc(N4CCN(C)CC4)cc3)n2)cc1 (stereo not shown)
A) 0.08

Q) Queued: "COc1ccc(-c2cc(NCCN(C)CCN)cc(-c3ccc(N4CCNCC4)cc3)n2)cc1"
A) 0.63

Q) Same lookup for "CN(CCCN)CCCNc1cc(-c2ccc(N3CCNCC3)cc2)nc(-c2ccc3c(c2)CCNC3)c1" , please.
A) 0.11

Q) Then this molecule: COc1ccc(-c2cc(NCC3CN(C)CCO3)cc(-c3ccc(N4CCN(C)CC4)cc3)n2)cc1 (stereo not shown)
A) 3.24

Q) Item: "COc1ccc(-c2cc(N[C@@H]3CCNC[C@@H]3OC)cc(-c3ccc(N4CCN(C)CC4)cc3)n2)cc1"
A) 0.36

###

target: TDP-43 1-260 (Homo sapiens, UniProt Q13148); test: TDP-43 alpha-screen assay with bt-TAR32; format: binding; settings: bt-TAR32 0.125 nM; 3 h at room temperature; read-out: Activity (μM) in the TDP-43-DNA alpha-screen assay
Observed Property: IC50 (µM)
I only need the number, in µM, no unit after it.

Molecule: COc1ccc(-c2cc(NC3CCNCC3F)cc(-c3ccc(N4CCN(C)CC4)cc3)n2)cc1 (stereo not shown)
Endpoint Value: 0.89
--
Molecule: CN(CCCN)CCCNc1cc(-c2ccc(CN3CCNCC3)cc2)nc(-c2ccc(N3CCNCC3)cc2)c1
Endpoint Value: 0.07
--
Molecule: COc1ccc(-c2cc(NCCCc3cnc[nH]3)cc(-c3ccc(N4CCN(C)CC4)cc3)n2)cc1
Endpoint Value: 3.77
--
Molecule: COc1ccc(-c2cc(NCCCN(C)CCCN)cc(-c3ccc(CN4CCNCC4)cc3)n2)cc1
Endpoint Value: 0.08
--
Molecule: CCOC(=O)N1CCC(Nc2cc(-c3ccc(OC)cc3)nc(-c3ccc(N4CCNCC4)cc3)c2)CC1
Endpoint Value: 9.49

Q) Reported IC50 for TDP-43 1-260 (Homo sapiens, UniProt Q13148), given "CNc1ccc(-c2cc(NCCCN(C)CCCN)cc(-c3ccc(OC)cc3)n2)cc1" ?
A) 0.08

Q) And the next one, "COc1ccc(-c2cc(NCCCN(C)CCCN)cc(-c3ccc(N4CCN(CC5CNC5)CC4)cc3)n2)cc1" ?
A) 0.07
